system: HBV (HepG2.117 cell line, inducibly HBV producing); experiment: Anti-HBV activity: intracellular HBV DNA by real-time PCR in HepG2.117 cells after 3 days of treatment; type: cell-based, hepatitis B virus; conditions: Hepatitis B virus, HepG2.117, 72 h, HepG2.117 cells, 3 days of treatment, intracellular HBV DNA by real-time PCR; mean value; read-out: EC50 (μM, mean value)
Would you kindly list EC50 for each of these molecules?
Numbers only, in µM.

Guide cases for EC50, answers given:
Chemical String	Result Number
COc1ccc(CNc2nc3c(c(=O)n2C2CC2)CCN(C(=O)c2ccc(Cl)c(Cl)c2)C3)cc1	10.8
Cc1[nH]cnc1-c1ccc(-n2c(NC(C)C)nc3c(c2=O)C[C@@H](C)N(C(=O)c2ccc(Cl)c(Cl)c2)C3)cc1	0.13
CC(C)Nc1nc2c(c(=O)n1-c1ccc(-c3nccs3)cc1)C[C@@H](C)N(C(=O)c1ccc(Cl)c(Cl)c1)C2	0.13

For the next question, use this molecule.
Provide measured EC50 value, entry: CC(C)Nc1nc2c(c(=O)n1-c1ccc(-c3cscn3)cc1)CCN(C(=O)c1ccc(Cl)c(Cl)c1)C2
0.53

###

experiment: in vitro; assay type: cell-based; details: human, HepG2 or HepG2.117 cells, 4-days incubation (values marked with *), ATPlite; mean value
Measure: CC50 at 4 days (µM)
Numbers only, in µM.

Chemical String	Unit String	CC50 at 4 days
COc1ccccc1-n1c(NCc2nccs2)nc2c(c1=O)CCN(C(=O)c1ccc(Cl)c(Cl)c1)C2	µM	38.9

For the next question, use this compound.
Provide measured CC50 at 4 days value, entry: O=C(c1ccc(Cl)c(Cl)c1)N1CCc2c(nc(NCc3ccccc3)[nH]c2=O)C1
24.7

###

assay: in vitro; assay type: cell-based; settings: human, HepG2 or HepG2.117 cells, 3-days incubation (unmarked values), ATPlite; mean value
Would you kindly list CC50 at 3 days for each of these compounds?

Compound	Result
CNC(=O)c1ccc(-n2c(NCc3c[nH]c4ccc(OC)cc34)nc3c(c2=O)C[C@@H](C)N(C(=O)c2ccc(Cl)c(Cl)c2)C3)cc1	> 50 µM
COc1ccc(CNc2nc3c(c(=O)[nH]2)CC(C)N(C(=O)c2ccc(Cl)c(Cl)c2)C3)cc1 (stereo not shown)	28.4 µM
CNC(=O)c1ccc(-n2c(N[C@@H](C)c3cccnc3)nc3c(c2=O)C[C@@H](C)N(C(=O)c2ccc(Cl)c(Cl)c2)C3)cc1 (single isomer, unassigned) [Compound C377b]	> 50 µM
Cc1noc(C)c1-c1ccc(-n2c(NC(C)C)nc3c(c2=O)C[C@@H](C)N(C(=O)c2ccc(Cl)c(Cl)c2)C3)cn1	> 50 µM
CCCn1c(NCc2ccc(OC)cc2)nc2c(c1=O)CCN(C(=O)c1ccc(Cl)c(Cl)c1)C2	> 50 µM
COCCn1c(NCc2ccc(OC)cc2)nc2c(c1=O)CCN(C(=O)c1ccc(Cl)c(Cl)c1)C2	36.6 µM
COC(=O)C12CC(n3c(NC(C)C)nc4c(c3=O)C[C@@H](C)N(C(=O)c3ccc(Cl)c(Cl)c3)C4)(C1)C2	> 50 µM
CNC1CCN(c2ccc(-n3c(NC(C)C)nc4c(c3=O)CCN(C(=O)c3ccc(Cl)c(Cl)c3)C4)cc2)C1 (stereo not shown)	5.6 µM
CC(C)Nc1nc2c(c(=O)n1-c1ccc(S(C)(=O)=O)cc1)CCN(C(=O)C1Cc3ccccc3O1)C2 (stereo not shown)	> 50 µM
COc1ccc(CNc2nc3c(c(=O)[nH]2)CCN(C(=O)c2ccc(Cl)c(C#N)c2)C3)cc1	> 50 µM

I have 3 compounds here; please give me CC50 at 3 days for each one.
1. COc1ccc(CNc2nc3c(c(=O)n2-c2ccncc2)CCN(C(=O)c2ccc(Cl)c(Cl)c2)C3)cc1
2. COC(=O)[C@H]1CC[C@H](n2c(NC(C)C)nc3c(c2=O)C[C@@H](C)N(C(=O)c2ccc(Cl)c(Cl)c2)C3)CC1
3. Cc1c[nH]c(-c2ccc(-n3c(NC(C)C)nc4c(c3=O)C[C@@H](C)N(C(=O)c3ccc(Cl)c(Cl)c3)C4)cc2)n1

1. 24.4 µM
2. > 50 µM
3. 8.9 µM

###

system: HBV (HepG2.117 cell line, inducibly HBV producing); assay: Anti-HBV activity: intracellular HBV DNA by real-time PCR in HepG2.117 cells after 3 days of treatment; type: cell-based, hepatitis B virus; details: Hepatitis B virus, HepG2.117, 72 h, HepG2.117 cells, 3 days of treatment, intracellular HBV DNA by real-time PCR; mean value; read-out: EC50 (μM, mean value)
Measure: EC50 (µM)
Give bare numbers, in µM.

Guide cases for EC50, answers given:
Compound	Tgt	Unit String	EC50
CC(C)Nc1nc2c(c(=O)n1-c1ccc(-c3cn[nH]c3)cc1)CCN(C(=O)c1ccc(Cl)c(Cl)c1)C2	HBV (HepG2.117 cell line, inducibly HBV producing)	µM	0.51
COc1ccc(CNc2nc3c(c(=O)[nH]2)CCN(C(=O)c2ccc(Cl)c(C)c2)C3)cc1	HBV (HepG2.117 cell line, inducibly HBV producing)	µM	3.25
COC(=O)c1ccn(-c2ccc(-n3c(NC(C)C)nc4c(c3=O)C[C@@H](C)N(C(=O)c3ccc(Cl)c(Cl)c3)C4)cc2)n1	HBV (HepG2.117 cell line, inducibly HBV producing)	µM	0.21

I have 3 compounds here; please give me EC50 for each one.
1. COc1ccc(CNc2nc3c(c(=O)n2CC(C)C)CCN(C(=O)c2ccc(Cl)c(Cl)c2)C3)cc1
2. CC(C)Nc1nc2c(c(=O)n1-c1ccc(S(C)(=O)=O)cc1)CCN(C(=O)c1ccc(C(F)(F)F)c(Cl)c1)C2
3. CC(C)Nc1nc2c(c(=O)n1C1CCS(=O)(=O)CC1)CCN(C(=O)c1ccc(Cl)c(Cl)c1)C2

[9.51, 0.55, 7.36]

I have 7 compounds here; please give me EC50 for each one.
1. COc1ccc(CNc2nc3c(c(=O)[nH]2)CCN(C(=O)c2ccc(C(F)(F)F)cc2)C3)cc1
2. CC(C)Nc1nc2c(c(=O)n1-c1ccc(NC3COC3)cc1)C[C@@H](C)N(C(=O)c1ccc(Cl)c(Cl)c1)C2
3. COc1ccc(CNc2nc3c(c(=O)n2C2CCCCC2)CCN(C(=O)c2ccc(Cl)c(Cl)c2)C3)cc1
4. CC(C)Nc1nc2c(c(=O)n1-c1ccc(-c3cc[nH]n3)cc1)C[C@@H](C)N(C(=O)c1ccc(Cl)c(Cl)c1)C2
5. Cc1noc(C)c1-c1ccc(-n2c(NC(C)C)nc3c(c2=O)C[C@@H](C)N(C(=O)c2ccc(Cl)c(Cl)c2)C3)cc1
6. CNC(=O)c1ccc(-n2c(NC(C)C)nc3c(c2=O)C[C@@H](C)N(C(=O)c2ccc(Cl)c(C(F)(F)F)c2)C3)nc1
7. CNC(=O)c1ccc(-n2c(N[C@H](C)CC(=O)O)nc3c(c2=O)C[C@@H](C)N(C(=O)c2ccc(Cl)c(Cl)c2)C3)cc1

1. 22
2. 0.18
3. 8.91
4. 0.19
5. 0.15
6. 0.02
7. 7.66

I have 5 compounds here; please give me EC50 for each one.
1. CC(C)Nc1nc2c(c(=O)n1CCNS(C)(=O)=O)CCN(C(=O)c1ccc(Cl)c(Cl)c1)C2
2. COc1ccc(CN(C)c2nc3c(c(=O)n2-c2ccccc2OC)CCN(C(=O)c2ccc(Cl)c(Cl)c2)C3)cc1
3. CCC(C)Nc1nc2c(c(=O)n1-c1ccccc1OC)CCN(C(=O)c1ccc(Cl)c(Cl)c1)C2 (stereo not drawn)
4. COc1ccc(CNc2nc3c(c(=O)n2CC2CCOCC2)CCN(C(=O)c2ccc(Cl)c(Cl)c2)C3)cc1
5. CNC(=O)c1cnc(-n2c(NC)nc3c(c2=O)C[C@@H](C)N(C(=O)c2ccc(Cl)c(Cl)c2)C3)cn1

1: 11.5; 2: 5.64; 3: 2.41; 4: 2.72; 5: 0.75

###

tested on: HBV (HepG2.117 cell line, inducibly HBV producing); experiment: Anti-HBV activity: intracellular HBV DNA by real-time PCR in HepG2.117 cells after 3 days of treatment; format: cell-based, hepatitis B virus; settings: Hepatitis B virus, HepG2.117, 72 h, HepG2.117 cells, 3 days of treatment, intracellular HBV DNA by real-time PCR; mean value; read-out: EC50 (μM, mean value)
hey, just use criterion met if measured EC50 is less than 0.2 µM, otherwise criterion not met

Some entries whose results are on file:
Compound	Group Label
Cc1csc(-c2ccc(-n3c(NC(C)C)nc4c(c3=O)C[C@@H](C)N(C(=O)c3ccc(Cl)c(Cl)c3)C4)cc2)n1	criterion met
CC(C)Nc1ncc(-n2c(NC(C)C)nc3c(c2=O)C[C@@H](C)N(C(=O)c2ccc(Cl)c(Cl)c2)C3)cn1	criterion not met
COc1ccccc1-n1c(NCc2ccc3c(c2)OCO3)nc2c(c1=O)CCN(C(=O)c1ccc(Cl)c(Cl)c1)C2	criterion not met

# strict comparison: is reported EC50 < 0.2 µM? input = CCCn1c(NCc2ccc(OC)cc2)nc2c(c1=O)CCN(C(=O)c1ccc(Cl)c(Cl)c1)C2
criterion not met

# strict comparison: is reported EC50 < 0.2 µM? input = CC(C)Nc1nc2c(c(=O)n1-c1ccc(N3CCOCC3)cc1)C[C@@H](C)N(C(=O)c1ccc(Cl)c(Cl)c1)C2
criterion met

# strict comparison: is reported EC50 < 0.2 µM? input = CCOC(=O)c1ccc(-n2c(NC(CCO)C3CC3)nc3c(c2=O)C[C@@H](C)N(C(=O)c2ccc(Cl)c(Cl)c2)C3)cc1 (stereo partly shown)
criterion not met

# strict comparison: is reported EC50 < 0.2 µM? input = CC(C)Nc1nc2c(c(=O)n1-c1ccc(-c3nccn3C)cc1)C[C@@H](C)N(C(=O)c1ccc(Cl)c(Cl)c1)C2
criterion met
